Quick list: optical density per entry.
Molecular target: T1, biotinylated goat anti-human kappa light chain
T1 construct: positive control of the ELISA
Test: ELISA, positive control; also: test concentration or dose not given here
Reported Endpoint: optical density

Binder	Measured
370_B07 (antibody, V domains shown, Group II) VH: EVQLLESGGGLVQPGGSLRLSCAASGFTFSSYGMHWVRQAPGKGLEWVANINYNSGYKSYADSVKGRFTISRDNSKNTLYLQMNSLRAEDTAVYYCARAATWHDTHLDYWGQGTLVTVSS VL: DIQMTQSPSSLSASVGDRVTITCRASQSILTYVNWYQQKPGKAPKLLIYAATSRHSGVPSRFSGSGSGTDFTLTISSLQPEDFATYYCQQSYSSPLTFGGGTKVEIK	3.48 OD
369_B07 (antibody, V domains shown, Group II) VH: EVQLLESGGGLVQPGGSLRLSCAASGFTFDSYGMHWVRQAPGKGLEWVANINYNGGYKSYADSVKGRFTISRDNSKNTLYLQMNSLRAEDTAVYYCARAATWHDTHLDYWGQGTLVTVSS VL: DIQMTQSPSSLSASVGDRVTITCRASQSIVSYVNWYQQKPGKAPKLVIYAATSLASGVPSRFSGSGSGTDFTLTISSLQPEDFATYYCQQSYDLPLTFGGGTKVEIK	3.39 OD
